# target system: Human Full Length PARG (Homo sapiens (Human), UniProt Q86W56)
# Sequence (Q86W56 whole entry): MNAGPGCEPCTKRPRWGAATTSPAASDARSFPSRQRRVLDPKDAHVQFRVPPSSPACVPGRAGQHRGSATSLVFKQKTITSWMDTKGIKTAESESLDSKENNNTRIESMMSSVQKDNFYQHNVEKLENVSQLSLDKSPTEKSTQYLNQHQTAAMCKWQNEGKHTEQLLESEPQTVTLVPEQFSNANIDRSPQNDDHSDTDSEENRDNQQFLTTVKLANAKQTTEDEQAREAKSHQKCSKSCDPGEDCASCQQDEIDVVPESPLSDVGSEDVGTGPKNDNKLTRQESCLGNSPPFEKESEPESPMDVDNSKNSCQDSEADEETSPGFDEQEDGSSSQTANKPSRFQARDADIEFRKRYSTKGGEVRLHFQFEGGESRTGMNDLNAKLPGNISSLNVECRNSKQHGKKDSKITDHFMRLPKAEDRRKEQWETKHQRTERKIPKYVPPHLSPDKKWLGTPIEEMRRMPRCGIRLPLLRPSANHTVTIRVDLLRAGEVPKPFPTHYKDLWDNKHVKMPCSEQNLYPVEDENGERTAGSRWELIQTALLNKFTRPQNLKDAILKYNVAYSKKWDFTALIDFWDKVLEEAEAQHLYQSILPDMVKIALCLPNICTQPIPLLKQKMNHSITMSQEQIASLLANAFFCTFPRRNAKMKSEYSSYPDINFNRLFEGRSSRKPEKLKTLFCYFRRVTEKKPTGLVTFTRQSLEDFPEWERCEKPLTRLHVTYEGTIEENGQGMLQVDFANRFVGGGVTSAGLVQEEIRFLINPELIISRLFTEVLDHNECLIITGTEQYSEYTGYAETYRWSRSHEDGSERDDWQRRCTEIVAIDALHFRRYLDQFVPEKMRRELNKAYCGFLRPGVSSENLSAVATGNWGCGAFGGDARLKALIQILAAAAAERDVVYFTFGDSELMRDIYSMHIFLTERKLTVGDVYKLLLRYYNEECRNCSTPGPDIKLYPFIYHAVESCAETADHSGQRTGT
# test protocol: PARG in vitro enzyme assay (TR-FRET)
# test parameters: read-out: PARG_EC50_ENZYME
The reader will find reported log10 EC50 values listed item by item below.
Field: value | Transform: log10 | Quantity: EC50 | Unit: nM

-- ask Which value of log10 EC50 has been reported for Cc1ccc(C(=O)n2c(=O)n(C)c3ccc(S(=O)(=O)NC4(C)CC4)cc32)cc1 in the records?
-- reply 3.65

-- ask Which value of log10 EC50 has been reported for Cc1nnc(-n2c(=O)n(C)c3c(C(F)(F)F)cc(S(=O)(=O)NC4(C)CC4)cc32)s1 in the records?
-- reply 2.87

-- ask Which value of log10 EC50 has been reported for COc1cccc(Cn2c(=O)n(C)c3cc(S(=O)(=O)NC4(C)CC4)ccc32)c1 in the records?
-- reply 3.79

-- ask Which value of log10 EC50 has been reported for Cn1c(=O)n(Cc2ccc(F)cc2)c2ccc(S(=O)(=O)NC3(C)CC3)cc21 in the records?
-- reply 3.37

Others:
-- ask Which value of log10 EC50 has been reported for Cc1nnc(-n2c(=O)n(C)c3c(F)cc(S(=O)(=O)NC4(C)CC4)cc32)s1 in the records?
-- reply 2.83

-- ask Which value of log10 EC50 has been reported for O=c1n(CCF)c2cc(F)c(S(=O)(=O)NC3(CF)CC3)cc2n1-c1nnc(C(F)F)o1 in the records?
-- reply 2.11

-- ask Which value of log10 EC50 has been reported for Cn1c(=O)n(Cc2ccccc2C#N)c2ccc(S(=O)(=O)NC3(C)CC3)cc21 in the records?
-- reply 3.72

-- ask Which value of log10 EC50 has been reported for Cn1c(=O)n(-c2ncc(CCC(=O)O)s2)c2cc(S(=O)(=O)NC3(C)CC3)ccc21 in the records?
-- reply 2.91

###

# target system: Human Full Length PARG (Homo sapiens (Human))
# test protocol: PARG in vitro enzyme assay (TR-FRET)
# test parameters: read-out: PARG_EC50_ENZYME
One threshold, 0.7 µM, splits the recorded EC50 values: lower ones are Fulfilled, equal or higher ones are Not fulfilled.

Worked examples, 4 compounds total:
-- ask Say whether its EC50 is strictly beneath 0.7 µM. Entry: C=CCn1c(=O)n(C)c2cc(S(=O)(=O)NC3(C)CC3)ccc21
-- reply Not fulfilled

-- ask Say whether its EC50 is strictly beneath 0.7 µM. Entry: Cc1ccc(-n2c(=O)n(C)c3cc(F)c(S(=O)(=O)NC4(C)CC4)cc32)nn1
-- reply Not fulfilled

-- ask Say whether its EC50 is strictly beneath 0.7 µM. Entry: Cc1nnc(-n2c(=O)n(CC#N)c3ccc(S(=O)(=O)NC4(C)CC4)cc32)s1
-- reply Not fulfilled

-- ask Say whether its EC50 is strictly beneath 0.7 µM. Entry: Cc1nnc(-n2cc(Cc3ccc(F)cc3)c3ccc(S(=O)(=O)NC4(C)CC4)cc32)s1
-- reply Not fulfilled

Others:
-- ask Say whether its EC50 is strictly beneath 0.7 µM. Entry: N#CCn1c(=O)n(-c2nnc(C(F)F)s2)c2cc(S(=O)(=O)NC3(CF)CC3)c(F)cc21
-- reply Fulfilled

-- ask Say whether its EC50 is strictly beneath 0.7 µM. Entry: CNC(=O)c1noc(Cn2c(=O)n(C)c3cc(S(=O)(=O)NC4(C)CC4)ccc32)n1
-- reply Not fulfilled

-- ask Say whether its EC50 is strictly beneath 0.7 µM. Entry: Cn1c(=O)n(-c2ncns2)c2cc(S(=O)(=O)NC3(CF)CC3)ccc21
-- reply Fulfilled
